- Test system: COR L88 complex tumor spheroid viability
- procedure-details: Anticancer human tumor COR L88 cell line growth inhibition;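 note: compound exposure lasted 7 days before viability readout; percent of DMSO vehicle-treated spheroids = 100%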
- measurement-conditions: second compound 94.9 pM; first compound 0.0949 µM; active compounds read low

compound | viability, T/C [%]
Cc1sc2c(c1C)C(c1ccc(Cl)cc1)=NC(CC(=O)Nc1ccc(O)cc1)c1nnc(C)n1-2 (centres undefined) + COc1cc2c(cc1O)CCNC21CSC2c3c(OC(C)=O)c(C)c4c(c3C(COC1=O)N1C(O)C3Cc5cc(C)c(OC)c(O)c5C(C21)N3C)OCO4 | 94.2
O=C(c1cc(Cc2n[nH]c(=O)c3ccccc23)ccc1F)N1CCN(C(=O)C2CC2)CC1 + COc1cc2c(cc1O)CCNC21CSC2c3c(OC(C)=O)c(C)c4c(c3C(COC1=O)N1C(O)C3Cc5cc(C)c(OC)c(O)c5C(C21)N3C)OCO4 | 98.9
CNCc1ccc(-c2cc(-c3nc(-c4ccc(S(=O)(=O)C(C)C)cc4)cnc3N)on2)cc1 + COc1cc2c(cc1O)CCNC21CSC2c3c(OC(C)=O)c(C)c4c(c3C(COC1=O)N1C(O)C3Cc5cc(C)c(OC)c(O)c5C(C21)N3C)OCO4 | 101
Cn1ncnc1[C@H]1c2n[nH]c(=O)c3cc(F)cc(c23)N[C@@H]1c1ccc(F)cc1 + COc1cc2c(cc1O)CCNC21CSC2c3c(OC(C)=O)c(C)c4c(c3C(COC1=O)N1C(O)C3Cc5cc(C)c(OC)c(O)c5C(C21)N3C)OCO4 | 50.5

----------
- Test system: COR L88 complex tumor spheroid viability
- procedure-details: Anticancer human tumor COR L88 cell line growth inhibition; active means viability on the fitted dose curve at most 10% of control; inactive means the rest;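 note: compound exposure lasted 7 days before viability readout; percent of DMSO vehicle-treated spheroids = 100%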
- measurement-conditions: second compound 0.0003 µM; first compound 10 µM
Possible outcomes: label 1 for active, label 0 for inactive

compound | qualitative-label
CC1COCCN1c1cc(-c2ccnn2C)c2ccnc(-c3ccn[nH]3)c2n1 (stereo unspecified) + COc1cc2c(cc1O)CCNC21CSC2c3c(OC(C)=O)c(C)c4c(c3C(COC1=O)N1C(O)C3Cc5cc(C)c(OC)c(O)c5C(C21)N3C)OCO4 | label 1
COc1ccc([C@@H](O)c2cc(-c3ncnc4cc(N5CCOCC5)ccc34)c(F)cc2Cl)nn1 + COc1cc2c(cc1O)CCNC21CSC2c3c(OC(C)=O)c(C)c4c(c3C(COC1=O)N1C(O)C3Cc5cc(C)c(OC)c(O)c5C(C21)N3C)OCO4 | label 0
CC(C)n1c(=O)n(C)c2cnc3cc(F)c(-c4ccc(OCCCN5CCCCC5)nc4)cc3c21 + COc1cc2c(cc1O)CCNC21CSC2c3c(OC(C)=O)c(C)c4c(c3C(COC1=O)N1C(O)C3Cc5cc(C)c(OC)c(O)c5C(C21)N3C)OCO4 | label 0
COc1cc(C)[nH]c(=O)c1CN1CCc2c(Cl)cc(C(OC)C3COC3)c(Cl)c2C1=O (stereo unspecified) + COc1cc2c(cc1O)CCNC21CSC2c3c(OC(C)=O)c(C)c4c(c3C(COC1=O)N1C(O)C3Cc5cc(C)c(OC)c(O)c5C(C21)N3C)OCO4 | label 0
[2H]c1nc(C)nc([2H])c1-c1cc(NC[C@@H](C)c2cccc3c(C(=O)NC)ccnc23)ncn1 + COc1cc2c(cc1O)CCNC21CSC2c3c(OC(C)=O)c(C)c4c(c3C(COC1=O)N1C(O)C3Cc5cc(C)c(OC)c(O)c5C(C21)N3C)OCO4 | label 0
Cc1cc(C)c(CNC(=O)c2cc(-c3ccc(CN4CCOCC4)cc3)cc3c2cnn3C2CCCC2)c(=O)[nH]1 + COc1cc2c(cc1O)CCNC21CSC2c3c(OC(C)=O)c(C)c4c(c3C(COC1=O)N1C(O)C3Cc5cc(C)c(OC)c(O)c5C(C21)N3C)OCO4 | label 0
